# Assayed target: human D2 receptor (Homo sapiens, UniProt P14416)
# Construct: expressed in transfected cells; cDNA from Origene clones TC308892 and SC123573
# Sequence (P14416 whole entry): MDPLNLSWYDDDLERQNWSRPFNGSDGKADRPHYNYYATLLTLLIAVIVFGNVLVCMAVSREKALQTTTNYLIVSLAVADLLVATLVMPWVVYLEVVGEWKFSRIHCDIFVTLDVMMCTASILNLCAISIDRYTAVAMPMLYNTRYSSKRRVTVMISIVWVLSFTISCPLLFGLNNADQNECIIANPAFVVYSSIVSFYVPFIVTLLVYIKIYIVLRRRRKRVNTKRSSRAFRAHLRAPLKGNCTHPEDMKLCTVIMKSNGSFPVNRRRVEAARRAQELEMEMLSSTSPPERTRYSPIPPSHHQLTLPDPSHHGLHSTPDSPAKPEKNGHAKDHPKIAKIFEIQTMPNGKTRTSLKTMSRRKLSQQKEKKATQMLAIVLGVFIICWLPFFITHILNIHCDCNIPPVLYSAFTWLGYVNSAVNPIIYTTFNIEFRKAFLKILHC
# Assay remarks: D2 receptor radioligand binding assay (membranes of HEK-293 cells expressing human D2 receptor)
# Test settings: radioligand displacement, HEK293 membranes, 37° C. for 120 minutes; read-out: Affinity Score (IC50 values for D2 on a scale of 1 through 5)
Structures can show the parent of a compound that is named as a salt.
Parameter measured: IC50

Example cases with answers are listed next.
- Compound: "O=C(O)c1cccc(CN2CN(C3CCCCC3)C3(CCN(CCCC(=O)c4ccccc4)CC3)C2=O)c1 [Compound 176, hydrochloride]"
  IC50: "< 10 nM"
- Compound: "O=C(O)c1ccccc1CN1CN(c2ccccc2)C2(CCN(CCCn3c(=O)[nH]c4ccccc43)CC2)C1=O [Compound 19]"
  IC50: "< 10 nM"
- Compound: "O=C(OCCN1CCOCC1)c1cccc(CN2CN(c3ccccc3)C3(CCN(CCCn4c(=O)[nH]c5ccccc54)CC3)C2=O)c1 [Compound 25]"
  IC50: "< 10 nM"
- Compound: "CS(=O)(=O)Nc1ccc(N2CN(c3ccccc3)C3(CCN(CCCC(=O)c4ccc(F)cc4)CC3)C2=O)cc1 [Compound 214]"
  IC50: "< 10 nM"
- Compound: "CC1(C)C(=O)N(CCCN2CCC3(CC2)C(=O)N(Cc2cccc(C(=O)O)c2)CN3c2ccc(F)cc2)c2ccccc21 [Compound 123]"
  IC50: "< 10 nM"

# input Please report the recorded IC50 for O=C(O)c1cccc(CN2CN(c3ccccc3)C3(CCN(CC4COc5ccccc5O4)CC3)C2=O)c1 (stereo not shown) [Compound 76] .
# output < 10 nM

# input Tell me the measured IC50 of CC1(C)C(=O)N(CCCN2CCC3(CC2)C(=O)N(Cc2ccccc2C(=O)O)CN3c2ccccc2)c2ccccc21 [Compound 137] , please.
# output < 10 nM

Just for reference, patent US9156840B2 is where these values come from.
